All values here come from paper PMC11638965.

# assayed system: BRD3 (Homo sapiens, UniProt Q15059)
# Construct: HiBiT, is appended to the N-terminus of endogenous BRD2, BRD3, and BRD4; endogenous in cells
# Sequence (Q15059 whole entry): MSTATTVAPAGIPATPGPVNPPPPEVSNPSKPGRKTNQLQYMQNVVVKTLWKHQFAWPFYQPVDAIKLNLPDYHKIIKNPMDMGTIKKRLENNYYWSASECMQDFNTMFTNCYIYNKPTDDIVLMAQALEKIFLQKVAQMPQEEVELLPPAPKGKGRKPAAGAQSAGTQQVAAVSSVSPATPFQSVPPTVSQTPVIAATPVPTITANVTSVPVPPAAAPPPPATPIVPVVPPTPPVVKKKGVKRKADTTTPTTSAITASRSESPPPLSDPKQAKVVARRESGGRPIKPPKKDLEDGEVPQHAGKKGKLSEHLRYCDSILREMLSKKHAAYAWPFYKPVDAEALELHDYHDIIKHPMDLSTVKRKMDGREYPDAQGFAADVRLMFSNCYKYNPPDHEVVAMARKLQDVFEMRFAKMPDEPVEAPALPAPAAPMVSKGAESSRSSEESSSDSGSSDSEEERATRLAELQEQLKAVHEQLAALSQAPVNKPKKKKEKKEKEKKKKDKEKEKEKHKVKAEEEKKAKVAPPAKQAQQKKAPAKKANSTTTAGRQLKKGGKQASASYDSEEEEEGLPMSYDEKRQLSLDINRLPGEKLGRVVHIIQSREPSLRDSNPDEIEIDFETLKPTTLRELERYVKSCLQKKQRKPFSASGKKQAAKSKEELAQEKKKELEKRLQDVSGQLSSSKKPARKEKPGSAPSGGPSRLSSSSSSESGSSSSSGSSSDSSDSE
# test: Western blot dose-response degradation in HEK293 cells
# Assay type: cell-based
# experimental parameters: 6 h, mean ± S.E.M. of three experiments, values marked b mean ± S.D. of two
# Description: HEK293 cells were obtained from ATCC. HEK293 was cultured in DMEM supplemented with 10% (v/v) fetal bovine serum (FBS), 1% […] and 1% (v/v) penicillin/streptomycin (pen/strep) at 37 °C, 5% CO2, and 95% humidity. […] Protein concentration was determined using the BCA assay. […] All Western blots were analyzed for band intensities using Image Lab (Bio-Rad). The data extracted from these blots were then plotted and analyzed using Prism (v. 10.2.2, GraphPad). […]
Provide the reported DC50 of each item.
Answers are plain numbers, in nM.

{"compound": "Cc1ncsc1-c1ccc([C@H](C)NC(=O)[C@@H]2C[C@@H](O)CN2C(=O)[C@@H](NC(=O)COCC(C)(COCCOCCOCCNc2cccc3c2C(=O)N(C2CCC(=O)NC2=O)C3=O)COCCOCCOCCOC(=O)C[C@@H]2N=C(c3ccc(Cl)cc3)c3c(sc(C)c3C)-n3c(C)nnc32)C(C)(C)C)cc1 (mixture of isomers) [AB3066 (24)]", "assayed system": "BRD3 (Homo sapiens, UniProt Q15059)", "quantitative result": 8.9}
{"compound": "Cc1ncsc1-c1ccc(CNC(=O)[C@@H]2C[C@@H](O)CN2C(=O)[C@@H](NC(=O)COCC(C)(COCCOCCOCCOC(=O)C[C@@H]2N=C(c3ccc(Cl)cc3)c3c(sc(C)c3C)-n3c(C)nnc32)COCCOCCOCCN2CCN(c3cc4c(cc3F)C(=O)N(C3CCC(=O)NC3=O)C4=O)CC2)C(C)(C)C)cc1 (mixture of isomers) [AB3030 (32)]", "assayed system": "BRD3 (Homo sapiens, UniProt Q15059)", "quantitative result": 6.4}

# return DC50 for each item in the list
1. Cc1ncsc1-c1ccc([C@H](C)NC(=O)[C@@H]2C[C@@H](O)CN2C(=O)[C@@H](NC(=O)COCC(C)(COCCOCCOCCNc2cc3c(cc2F)C(=O)N(C2CCC(=O)NC2=O)C3=O)COCCOCCOCCOC(=O)C[C@@H]2N=C(c3ccc(Cl)cc3)c3c(sc(C)c3C)-n3c(C)nnc32)C(C)(C)C)cc1 (mixture of isomers) [AB3067 (27)]
2. Cc1ncsc1-c1ccc(CNC(=O)[C@@H]2C[C@@H](O)CN2C(=O)[C@@H](NC(=O)COCC(C)(COCCOCCOCCOC(=O)C[C@@H]2N=C(c3ccc(Cl)cc3)c3c(sc(C)c3C)-n3c(C)nnc32)COCCOCCOCCN2CCN(c3cccc4c3C(=O)N(C3CCC(=O)NC3=O)C4=O)CC2)C(C)(C)C)cc1 (mixture of isomers) [AB3029 (31)]
3. Cc1ncsc1-c1ccc(CNC(=O)[C@@H]2C[C@@H](O)CN2C(=O)[C@@H](NC(=O)COCC(C)(COCCOCCOCCNc2cc3c(cc2F)C(=O)N(C2CCC(=O)NC2=O)C3=O)COCCOCCOCCOC(=O)C[C@@H]2N=C(c3ccc(Cl)cc3)c3c(sc(C)c3C)-n3c(C)nnc32)C(C)(C)C)cc1 (mixture of isomers) [AB3063 (26)]
4. Cc1ncsc1-c1ccc(CNC(=O)[C@@H]2C[C@@H](O)CN2C(=O)[C@@H](NC(=O)COCC(C)(COCCOCCOCCNc2cccc3c2C(=O)N(C2CCC(=O)NC2=O)C3=O)COCCOCCOCCOC(=O)C[C@@H]2N=C(c3ccc(Cl)cc3)c3c(sc(C)c3C)-n3c(C)nnc32)C(C)(C)C)cc1 (mixture of isomers) [AB3062 (23)]

Result block:
1.6
14
4.8
11

* * *

# assayed system: BRD4^Long (Homo sapiens, UniProt O60885)
# Construct: Western blot data for BET, CRBN and VHL protein levels; endogenous in cells; host or cells: HEK293 (ATCC)
# test: Western blot dose-response degradation in HEK293 cells
# Assay type: cell-based
# experimental parameters: HEK293 cells, 6 h, Western blot; mean ± S.E.M. of three experiments, values marked b mean ± S.D. of two
Provide the reported DC50 of each item.

{"compound": "Cc1ncsc1-c1ccc([C@H](C)NC(=O)[C@@H]2C[C@@H](O)CN2C(=O)[C@@H](NC(=O)COCC(C)(COCCOCCOCCNc2cccc3c2C(=O)N(C2CCC(=O)NC2=O)C3=O)COCCOCCOCCOC(=O)C[C@@H]2N=C(c3ccc(Cl)cc3)c3c(sc(C)c3C)-n3c(C)nnc32)C(C)(C)C)cc1 (mixture of isomers)", "DC50": "6.8 nM"}

# return DC50 for each item in the list
1. Cc1ncsc1-c1ccc(CNC(=O)[C@@H]2C[C@@H](O)CN2C(=O)[C@@H](NC(=O)COCC(C)(COCCOCCNc2cc3c(cc2F)C(=O)N(C2CCC(=O)NC2=O)C3=O)COCCOCCOCCOC(=O)C[C@@H]2N=C(c3ccc(Cl)cc3)c3c(sc(C)c3C)-n3c(C)nnc32)C(C)(C)C)cc1 (mixture of isomers)
2. Cc1ncsc1-c1ccc(CNC(=O)[C@@H]2C[C@@H](O)CN2C(=O)[C@@H](NC(=O)COCC(C)(COCCOCCOCCNc2cc3c(cc2F)C(=O)N(C2CCC(=O)NC2=O)C3=O)COCCOCCOCCOC(=O)C[C@@H]2N=C(c3ccc(Cl)cc3)c3c(sc(C)c3C)-n3c(C)nnc32)C(C)(C)C)cc1 (mixture of isomers)
3. Cc1ncsc1-c1ccc(CNC(=O)[C@@H]2C[C@@H](O)CN2C(=O)[C@@H](NC(=O)COCC(COCCOCCOCCNc2cc3c(cc2F)C(=O)N(C2CCC(=O)NC2=O)C3=O)(COCCOCCOCCOC(=O)C[C@@H]2N=C(c3ccc(Cl)cc3)c3c(sc(C)c3C)-n3c(C)nnc32)COCCOCCOCCOC(=O)C[C@@H]2N=C(c3ccc(Cl)cc3)c3c(sc(C)c3C)-n3c(C)nnc32)C(C)(C)C)cc1 (mixture of isomers)
4. Cc1ncsc1-c1ccc(CNC(=O)[C@@H]2C[C@@H](O)CN2C(=O)[C@@H](NC(=O)COCC(C)(COCCOCCOCCOC(=O)C[C@@H]2N=C(c3ccc(Cl)cc3)c3c(sc(C)c3C)-n3c(C)nnc32)COCCOCCOCCN2CCN(c3cccc4c3C(=O)N(C3CCC(=O)NC3=O)C4=O)CC2)C(C)(C)C)cc1 (mixture of isomers)
5. Cc1ncsc1-c1ccc([C@H](C)NC(=O)[C@@H]2C[C@@H](O)CN2C(=O)[C@@H](NC(=O)COCC(C)(COCCOCCOCCNc2cc3c(cc2F)C(=O)N(C2CCC(=O)NC2=O)C3=O)COCCOCCOCCOC(=O)C[C@@H]2N=C(c3ccc(Cl)cc3)c3c(sc(C)c3C)-n3c(C)nnc32)C(C)(C)C)cc1 (mixture of isomers)

Result block:
["5 nM", "0.76 nM", "2.2 nM", "14 nM", "2.3 nM"]

* * *

# assayed system: BRD4 (Homo sapiens)
# test: Live cell kinetic HiBiT degradation assay, HiBiT-BRD4 HEK293 cells (parental, CRBN KO, VHL KO)
# Type: cell-based
# experimental parameters: HiBiT-BRD4 CRISPR knock-in HEK293 cells, live cell kinetic degradation, 24 h; read-out: Dmax 50 BRD4
result type: log10 of EC50 (log10 of the value in nM)
Units before log transform: nM; reported quantity: EC50; transform: log10.

Take a look at these entries with their results.
{"molecule": "Cc1ncsc1-c1ccc(CNC(=O)[C@@H]2C[C@@H](O)CN2C(=O)[C@@H](NC(=O)COCC(C)(COCCOCCOCCOC(=O)C[C@@H]2N=C(c3ccc(Cl)cc3)c3c(sc(C)c3C)-n3c(C)nnc32)COCCOCCOCCN2CCN(c3cc4c(cc3F)C(=O)N(C3CCC(=O)NC3=O)C4=O)CC2)C(C)(C)C)cc1 (mixture of isomers)", "assayed system": "BRD4 (Homo sapiens)", "log10 of EC50": 0.87}
{"molecule": "Cc1ncsc1-c1ccc(CNC(=O)[C@@H]2C[C@@H](O)CN2C(=O)[C@@H](NC(=O)COCC(C)(COCCOCCNC(=O)C[C@@H]2N=C(c3ccc(Cl)cc3)c3c(sc(C)c3C)-n3c(C)nnc32)COCCOCCNc2cccc3c2C(=O)N(C2CCC(=O)NC2=O)C3=O)C(C)(C)C)cc1 (stereo partly drawn)", "assayed system": "BRD4 (Homo sapiens)", "log10 of EC50": 1.74}
{"molecule": "Cc1ncsc1-c1ccc(CNC(=O)[C@@H]2C[C@@H](O)CN2C(=O)[C@@H](NC(=O)COCC(C)(COCCOCCOCCNC(=O)C[C@@H]2N=C(c3ccc(Cl)cc3)c3c(sc(C)c3C)-n3c(C)nnc32)COCCOCCOCCNc2cccc3c2C(=O)N(C2CCC(=O)NC2=O)C3=O)C(C)(C)C)cc1 (stereo partly drawn)", "assayed system": "BRD4 (Homo sapiens)", "log10 of EC50": 1.57}

# return log10 of EC50 for each item in the list
1. Cc1ncsc1-c1ccc(CNC(=O)[C@@H]2C[C@@H](O)CN2C(=O)[C@@H](NC(=O)COCC(COCCOCCOCCNc2cc3c(cc2F)C(=O)N(C2CCC(=O)NC2=O)C3=O)(COCCOCCOCCOC(=O)C[C@@H]2N=C(c3ccc(Cl)cc3)c3c(sc(C)c3C)-n3c(C)nnc32)COCCOCCOCCOC(=O)C[C@@H]2N=C(c3ccc(Cl)cc3)c3c(sc(C)c3C)-n3c(C)nnc32)C(C)(C)C)cc1 (mixture of isomers)
2. Cc1ncsc1-c1ccc(CNC(=O)[C@@H]2C[C@@H](O)CN2C(=O)[C@@H](NC(=O)COCC(C)(COCCOCCOCCNc2cccc3c2C(=O)N(C2CCC(=O)NC2=O)C3=O)COCCOCCOCCOC(=O)C[C@@H]2N=C(c3ccc(Cl)cc3)c3c(sc(C)c3C)-n3c(C)nnc32)C(C)(C)C)cc1 (mixture of isomers)

Result block:
0.04
1.04

Query block: I would be grateful if you could share the reported log10 of EC50 for Cc1ncsc1-c1ccc([C@H](C)NC(=O)[C@@H]2C[C@@H](O)CN2C(=O)[C@@H](NC(=O)COCC(C)(COCCOCCOCCNc2cccc3c2C(=O)N(C2CCC(=O)NC2=O)C3=O)COCCOCCOCCOC(=O)C[C@@H]2N=C(c3ccc(Cl)cc3)c3c(sc(C)c3C)-n3c(C)nnc32)C(C)(C)C)cc1 (mixture of isomers) .
Result block: 0.48
